Hi there, I'd appreciate the recorded self-cleavage for every entry that follows.
B1: HDV Ribozyme (parent)
chain: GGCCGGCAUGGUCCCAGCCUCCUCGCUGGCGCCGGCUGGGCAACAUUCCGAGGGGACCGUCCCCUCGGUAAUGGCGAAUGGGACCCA

variants of: B1; test: self-cleavage, relative activity (ratio to wild type); higher = more cleavage; co-transcriptional

// solved cases for self-cleavage follow
C19G C85A | 0.148
U65A C84U | 0.799
C4G C32A | 0.0692

Hi, could you look up self-cleavage for each item in my list?
1. G50U G74A
2. G34C G39U

OUTPUT:
1: 0.453; 2: 0.156
